System: HCV type 1b replicon in Huh-7 luc/neo (Huh-Luc) cells
Assay: Replicon assay: inhibition of HCV RNA replication in Huh-Luc cells (luciferase)
Format: cell-based
Conditions: Hepatitis C virus, Huh-7, 72 h, luciferase activity, incubation of three days
REPORTED_METRIC: EC50 (µM)
Expressed in µM, but write only the number.

# CCc1c(OC)ccc2c(O[C@@H]3C[C@H]4C(=O)N[C@]5(C(=O)NS(=O)(=O)C6CC6)C[C@H]5/C=C\CCCCN(C)C(=O)[C@@H]4C3)cc(-c3nc(C(C)C)cs3)nc12 [Compound 72] with HCV type 1b replicon in Huh-7 luc/neo (Huh-Luc) cells: EC50 is 0.066

# COc1ccc2c(O[C@@H]3C[C@H]4C(=O)N[C@]5(C(=O)O)C[C@H]5/C=C\CCCCN(C)C(=O)[C@@H]4C3)cc(-c3nccs3)nc2c1C [Compound 29] with HCV type 1b replicon in Huh-7 luc/neo (Huh-Luc) cells: EC50 is 10

# COc1ccc2c(O[C@@H]3C[C@H]4C(=O)N[C@]5(C(=O)NS(=O)(=O)C6CC6)C[C@H]5/C=C\CCCCN(C)C(=O)[C@@H]4C3)cc(-c3nc(C(C)C)cs3)nc2c1C [Compound 47] with HCV type 1b replicon in Huh-7 luc/neo (Huh-Luc) cells: EC50 is 0.00618

These data points were gathered from patent US8741926B2.
